# experimental_target: FGFR1 (Homo sapiens, UniProt P11362)
# Construct: made in house; host or cells: E. coli (BL21-derived), T7 phage
# Sequence (P11362 22-822): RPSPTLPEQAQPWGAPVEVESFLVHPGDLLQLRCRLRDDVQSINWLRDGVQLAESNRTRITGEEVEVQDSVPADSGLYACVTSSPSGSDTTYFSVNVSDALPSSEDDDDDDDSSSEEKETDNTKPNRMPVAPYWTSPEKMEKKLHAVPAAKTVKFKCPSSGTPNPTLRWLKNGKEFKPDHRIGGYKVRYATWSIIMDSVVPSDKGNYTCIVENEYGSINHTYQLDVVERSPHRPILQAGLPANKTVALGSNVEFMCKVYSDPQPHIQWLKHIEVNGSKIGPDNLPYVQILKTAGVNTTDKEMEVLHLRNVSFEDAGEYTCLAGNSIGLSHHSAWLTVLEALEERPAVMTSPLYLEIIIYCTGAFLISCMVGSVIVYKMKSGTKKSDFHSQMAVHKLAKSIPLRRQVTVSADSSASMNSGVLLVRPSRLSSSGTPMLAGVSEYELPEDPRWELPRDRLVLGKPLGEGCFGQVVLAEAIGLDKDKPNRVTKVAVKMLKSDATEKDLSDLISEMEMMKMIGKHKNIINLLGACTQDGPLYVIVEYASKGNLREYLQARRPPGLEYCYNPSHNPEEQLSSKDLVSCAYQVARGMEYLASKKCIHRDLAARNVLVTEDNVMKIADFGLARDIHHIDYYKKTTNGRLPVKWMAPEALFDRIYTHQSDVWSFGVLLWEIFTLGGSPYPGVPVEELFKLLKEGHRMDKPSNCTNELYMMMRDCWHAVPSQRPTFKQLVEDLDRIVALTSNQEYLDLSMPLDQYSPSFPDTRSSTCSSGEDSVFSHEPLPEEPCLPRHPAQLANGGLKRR
# method: Kinase binding assay (kinase-tagged T7 phage, affinity beads, qPCR), Kd
# run_conditions: read-out: FGFR1 (Kd nM)
Below: a set of entries, each annotated with reported Kd.

* C[C@@H](Oc1ccc2[nH]nc(-c3ccc(N4CC(C)(CS(C)(=O)=O)C4)nc3)c2c1)c1c(Cl)cncc1Cl | 1 to 50 nM
* C[C@@H](Oc1ccc2[nH]nc(-c3cnc(N4CC(C)(N5CCCC5)C4)c(C#N)c3)c2c1)c1c(Cl)cncc1Cl | 1 to 50 nM

Which Kd value is on record for `C[C@@H](Oc1ccc2[nH]nc(-c3cnc(N4CC(C)(N5C[C@@H]6C[C@H]5CO6)C4)c(F)c3)c2c1)c1c(Cl)cncc1Cl` ?
1 to 50 nM

* * *

Below: a set of entries, each annotated with reported Kd.
# experimental_target: FGFR1 (Homo sapiens)
# Construct: made in house; host or cells: E. coli (BL21-derived), T7 phage
# method: Kinase binding assay (kinase-tagged T7 phage, affinity beads, qPCR), Kd
# run_conditions: read-out: FGFR1 (Kd nM)

Example compounds with recorded Kd:
* C[C@@H](Oc1ccc2[nH]nc(-c3cnc(N4CC(C)(N5CCC5)C4)c(F)c3)c2c1F)c1c(Cl)cncc1Cl [Example 184] | 300 to 1000 nM
* C[C@@H](Oc1ccc2[nH]nc(-c3cnc(N4CC(CC#N)(NCC5CC5)C4)c(F)c3)c2c1)c1c(Cl)cncc1Cl [Example 151] | 1 to 50 nM
* CCC1(N)CN(c2ccc(-c3n[nH]c4ccc(O[C@H](C)c5c(Cl)cncc5Cl)cc34)nn2)C1 [Example 299] | 1 to 50 nM
* C[C@@H](Oc1cc2c(-c3cnc(N4CC(C)(N(C)C)C4)c(F)c3)n[nH]c2cc1F)c1c(Cl)cncc1Cl [Example 130] | 1 to 50 nM

Lab note: need Kd for CC(C)NC1(C)CN(c2ccc(-c3n[nH]c4ccc(O[C@H](C)c5c(Cl)cncc5Cl)c(F)c34)cn2)C1 [Example 173] on FGFR1 (Homo sapiens), anyone have it?
300 to 1000 nM

Lab note: need Kd for CC[C@@H](C)NC1(C)CN(c2ccc(-c3n[nH]c4ccc(O[C@H](C)c5c(Cl)cncc5Cl)cc34)cn2)C1 [Example 225] on FGFR1 (Homo sapiens), anyone have it?
1 to 50 nM

Lab note: need Kd for C[C@@H](Oc1ccc2[nH]nc(-c3ccc(N4CC(C)(OCCN5CCCC5)C4)nn3)c2c1)c1c(Cl)cncc1Cl [Example 269] on FGFR1 (Homo sapiens), anyone have it?
1 to 50 nM

* * *

Below: a set of entries, each annotated with reported Kd.
# experimental_target: FGFR2 (Homo sapiens)
# Construct: made in house; host or cells: E. coli (BL21-derived), T7 phage
# Sequence (P21802 22-821): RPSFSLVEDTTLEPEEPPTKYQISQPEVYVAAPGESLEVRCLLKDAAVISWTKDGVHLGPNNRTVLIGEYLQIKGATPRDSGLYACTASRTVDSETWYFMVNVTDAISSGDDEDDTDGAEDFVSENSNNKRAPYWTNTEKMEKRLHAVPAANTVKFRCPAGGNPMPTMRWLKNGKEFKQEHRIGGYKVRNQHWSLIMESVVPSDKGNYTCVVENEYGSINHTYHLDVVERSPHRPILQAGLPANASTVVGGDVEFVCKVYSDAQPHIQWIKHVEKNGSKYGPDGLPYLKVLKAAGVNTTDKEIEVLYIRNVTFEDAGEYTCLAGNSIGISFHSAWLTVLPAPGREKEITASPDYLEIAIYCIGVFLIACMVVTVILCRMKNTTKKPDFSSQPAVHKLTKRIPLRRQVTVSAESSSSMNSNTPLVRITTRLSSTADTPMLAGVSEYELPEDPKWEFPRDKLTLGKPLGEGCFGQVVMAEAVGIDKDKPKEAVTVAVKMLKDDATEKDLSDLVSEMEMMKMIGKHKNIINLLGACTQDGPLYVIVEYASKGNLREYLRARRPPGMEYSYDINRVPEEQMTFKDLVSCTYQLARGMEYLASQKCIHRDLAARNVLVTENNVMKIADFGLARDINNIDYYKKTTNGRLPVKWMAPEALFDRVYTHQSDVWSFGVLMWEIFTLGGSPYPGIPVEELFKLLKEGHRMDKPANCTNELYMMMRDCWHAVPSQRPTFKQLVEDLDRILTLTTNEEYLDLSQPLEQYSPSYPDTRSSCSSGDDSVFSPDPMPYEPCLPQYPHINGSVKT
# method: Kinase binding assay (kinase-tagged T7 phage, affinity beads, qPCR), Kd
# run_conditions: read-out: FGFR2 (Kd nM)

Example compounds with recorded Kd:
- C[C@@H](Oc1ccc2[nH]nc(-c3cnc(N4CC(C)(NCC(F)F)C4)c(C#N)c3)c2c1)c1c(Cl)cncc1Cl: 50 to 300 nM
- CC(C)NCC1(C)CN(c2ncc(-c3n[nH]c4ccc(O[C@H](C)c5c(Cl)cncc5Cl)cc34)cc2C#N)C1: 50 to 300 nM

Which Kd value is on record for `Cc1ncc(Cl)c([C@@H](C)Oc2ccc3[nH]nc(-c4ccc(N5CC(C)(N6CCOCC6)C5)nc4)c3c2)c1Cl` ?
1 to 50 nM

Which Kd value is on record for `C[C@@H](Oc1ccc2[nH]nc(-c3cnc(N4CC(C)(NCCO)C4)c(F)c3)c2c1F)c1c(Cl)cncc1Cl` ?
> 1000 nM

Which Kd value is on record for `C[C@@H](Oc1cc2c(-c3cnc(N4CC(C)(N5CCC5)C4)c(C#N)c3)n[nH]c2cc1F)c1c(Cl)cncc1Cl` ?
1 to 50 nM

Which Kd value is on record for `COc1cc2[nH]nc(-c3cnc(N4CCC(C)(N)CC4)c(C#N)c3)c2cc1O[C@H](C)c1c(Cl)cncc1Cl` ?
1 to 50 nM

Which Kd value is on record for `C[C@@H](O)CNC1(C)CN(c2ncc(-c3n[nH]c4ccc(O[C@H](C)c5c(Cl)cncc5Cl)c(F)c34)cc2F)C1` ?
> 1000 nM
